Value source: the PolyMetriX glass transition set

Measurement type: glass transition temperature (°C)
Kindly answer with a numeric value in °C, unit omitted.

Molecule	Assay result
*c1ccc(Oc2c(C)cc(C(c3cccnc3)c3cc(C)c(Oc4ccc(N5C(=O)CC(Nc6cccc(NC7CC(=O)N(*)C7=O)c6)C5=O)cc4)c(C)c3)cc2C)cc1 (repeat unit)	217.00
*C(=O)c1ccc2c(c1)C(=O)N(c1ccc(Oc3cccc(Oc4ccc(N5C(=O)c6ccc(*)cc6C5=O)cc4)c3C#N)cc1)C2=O (repeat unit)	245.00

Task: Which glass transition temperature reading was recorded for the molecule */C=C/C1=C(*)CC(C(=O)OCC)(C(=O)OCC)C1 (repeat unit) ?
Result: 27.7

Task: Which glass transition temperature reading was recorded for the molecule *C1C2CC(CCCCCCCCC(=O)OCC)C(C2)C1* (repeat unit) ?
Result: 134.00
